# Assay method text: logP by HPLC (EEC directive 79/831 Annex V.A8, gradient method)
# Format: physicochemical
# Experimental context: gradient method, acetonitrile/0.1% aqueous phosphoric acid, compounds of formula (IV), Table 2
Below, each entry is listed with its recorded logP*.
Endpoint: logP*

| Compound | Endpoint | Numeric result |
| --- | --- | --- |
| CCC(C)Oc1n[nH]c(=O)c2ccc(Br)cc12 (centres unmarked) [(IV-4)] | logP* | 3.12 |
| CC(C)COc1n[nH]c(=O)c2cc(Cl)c(Cl)cc12 [(IV-6)] | logP* | 3.64 |
| CCCOc1n[nH]c(=O)c2ccc(Br)cc12 [(IV-3)] | logP* | 2.71 |
| CCC(C)Oc1n[nH]c(=O)c2cc(Cl)c(Cl)cc12 (centres unmarked) [(IV-5)] | logP* | 3.62 |
| CCCOc1n[nH]c(=O)c2cc(Br)ccc12 [(IV-2)] | logP* | 2.66 |
